Reference source for all entries: PubChem BioAssay (NCI)

system: OVCAR-5 ovarian; assay: NCI tumour cell line growth inhibition, 48 h
Listed compounds paired with reported TGI

>  <compound>
CCN(CC)CC(C)(C)C(=O)/C=C/c1ccc(/C=C/C(=O)C(C)(C)CN(CC)CC)cc1

>  <assay_system>
OVCAR-5 ovarian

>  <result_modifier>
=

>  <TGI [µM]>
2.93

$$$$
>  <compound>
CC(=N)N(C)O

>  <assay_system>
OVCAR-5 ovarian

>  <result_modifier>
>

>  <TGI [µM]>
100

$$$$
>  <compound>
CC(CCCC1SCC2NC(=O)NC21)C(=O)O (configuration not stated)

>  <assay_system>
OVCAR-5 ovarian

>  <result_modifier>
>

>  <TGI [µM]>
100

$$$$
>  <compound>
O=C1/C(=C/c2cccs2)NC(=S)N1CN1CCCC(CO)C1 (configuration not stated)

>  <assay_system>
OVCAR-5 ovarian

>  <result_modifier>
>

>  <TGI [µM]>
100

$$$$
>  <compound>
CC(C)(C)c1ccc(O)c(CN(Cc2cc(C(C)(C)C)ccc2O)C2CCCCC2)c1

>  <assay_system>
OVCAR-5 ovarian

>  <result_modifier>
=

>  <TGI [µM]>
34.1

$$$$
>  <compound>
CC[C@]12C=CCN3CC[C@@]4(c5ccc(OC)cc5N(C)[C@H]4[C@@](O)(C(=O)OC)[C@@H]1OC(=O)CCC(=O)N[C@H](Cc1c[nH]c4ccccc14)C(=O)OC)[C@@H]32

>  <assay_system>
OVCAR-5 ovarian

>  <result_modifier>
=

>  <TGI [µM]>
45

$$$$
>  <compound>
CCN(CC)CCNc1ccc2nnn3c4ccccc4c(=O)c1c23

>  <assay_system>
OVCAR-5 ovarian

>  <result_modifier>
=

>  <TGI [µM]>
14.4

$$$$

----------
system: RPMI-8226 leukemia; test: NCI tumour cell line growth inhibition, 48 h

>  <compound>
COC(=O)c1cc(C)n(CN(Cc2ccccc2)Cn2nc(C(=O)OC)cc2C)n1

>  <assay_system>
RPMI-8226 leukemia

>  <TGI>
> 62.9 µM

$$$$
>  <compound>
Cc1ccc(C)n1-n1c(-c2ccccc2)n[nH]c1=O

>  <assay_system>
RPMI-8226 leukemia

>  <TGI>
> 100 µM

$$$$
>  <compound>
O=C(Nc1cccnc1)c1ccc2ccc3ccc(C(=O)Nc4cccnc4)nc3c2n1

>  <assay_system>
RPMI-8226 leukemia

>  <TGI>
> 100 µM

$$$$
>  <compound>
CC(O[Si](c1ccccc1)(c1ccccc1)C(C)(C)C)[C@H](NC(=O)OC(C)(C)C)C(=O)O (stereo not given in full)

>  <assay_system>
RPMI-8226 leukemia

>  <TGI>
> 100 µM

$$$$
>  <compound>
O=C(c1ccccc1)c1c(CC(O)c2ccccc2)n(C(=O)c2ccccc2)c2ccccc12 (stereo not given)

>  <assay_system>
RPMI-8226 leukemia

>  <TGI>
> 100 µM

$$$$
>  <compound>
O=C1C(Cl)=C(N2CCN(c3ccccn3)CC2)C(=O)c2ncccc21

>  <assay_system>
RPMI-8226 leukemia

>  <TGI>
5.7 µM

$$$$
>  <compound>
COC(=O)c1ccc2c(c1)c1c(C)c3ccncc3c(C)c1n2C

>  <assay_system>
RPMI-8226 leukemia

>  <TGI>
25.1 µM

$$$$
>  <compound>
CCN(CC)CCNc1ccc2nnn3c4ccccc4c(=O)c1c23

>  <assay_system>
RPMI-8226 leukemia

>  <TGI>
> 24.2 µM

$$$$
>  <compound>
NC(=O)C(Nc1ccc(Cl)cc1)c1cc2cc(Br)ccc2nc1Cl (stereo not given)

>  <assay_system>
RPMI-8226 leukemia

>  <TGI>
> 50 µM

$$$$
>  <compound>
CN(C)CCCNC(=O)c1cc(NC(=O)c2cc(NC(=O)[C@@H]3C[C@H]3C(=O)Nc3cc(C(=O)Nc4cc(C(=O)NCCCN(C)C)n(C)c4)n(C)c3)cn2C)cn1C

>  <assay_system>
RPMI-8226 leukemia

>  <TGI>
> 100 µM

$$$$
>  <compound>
CCCCCCN(C)Cc1ccc(OCCOc2ccc(CN(C)CCCCCC)cc2)cc1

>  <assay_system>
RPMI-8226 leukemia

>  <TGI>
25.4 µM

$$$$
>  <compound>
CC(=O)OCC(OC(C)=O)C(OC(C)=O)C(OC(C)=O)C(/C=N\Nc1nc2ccccc2c(=O)[nH]1)=N/Nc1nc2ccccc2c(=O)[nH]1 (stereo not given)

>  <assay_system>
RPMI-8226 leukemia

>  <TGI>
> 100 µM

$$$$
>  <compound>
O=c1[nH]c(=O)n(C/C=C/CBr)nc1Br

>  <assay_system>
RPMI-8226 leukemia

>  <TGI>
23.3 µM

$$$$
>  <compound>
COC(=O)C(=O)C(C(=O)C=C(C)C)C(=O)C(=O)Nc1nc2ccc([N+](=O)[O-])cc2s1 (stereo not given)

>  <assay_system>
RPMI-8226 leukemia

>  <TGI>
> 100 µM

$$$$
>  <compound>
C/C(CCn1[nH]c(=O)ccc1=O)=N\Nc1ccc([N+](=O)[O-])cc1[N+](=O)[O-]

>  <assay_system>
RPMI-8226 leukemia

>  <TGI>
> 100 µM

$$$$
>  <compound>
Cc1ccc(/C=C(\C#N)c2ccccc2)cc1

>  <assay_system>
RPMI-8226 leukemia

>  <TGI>
> 100 µM

$$$$
>  <compound>
C[C@]12CC[C@@H]3c4ccc(OCCN5CCCC5)cc4CC[C@H]3[C@@H]1CCC2=O

>  <assay_system>
RPMI-8226 leukemia

>  <TGI>
> 100 µM

$$$$
>  <compound>
CC(=O)O/N=C(Cl)/C(Cl)=N/OC(C)=O

>  <assay_system>
RPMI-8226 leukemia

>  <TGI>
> 100 µM

$$$$
>  <compound>
NC(=S)NS(=O)(=O)c1ccc(F)cc1F

>  <assay_system>
RPMI-8226 leukemia

>  <TGI>
> 100 µM

$$$$
>  <compound>
COc1ccc2c(c1)N(CCO)C1=C(C(=O)OC1)C2c1ccccc1 (stereo not given)

>  <assay_system>
RPMI-8226 leukemia

>  <TGI>
> 50 µM

$$$$

----------
system: HCC-2998 colon; assay: NCI tumour cell line growth inhibition, 48 h
The molecules listed here are annotated with their TGI.

>  <molecule>
N#Cc1c(-c2ccccc2)c(C#N)c(=O)n(C2OC(CO)C(O)C(O)C2O)c1S (stereo not given)

>  <assay_system>
HCC-2998 colon

>  <TGI>
> 100 µM

$$$$
>  <molecule>
CC1=CC(C)(C)Nc2ccc(CSc3ccccc3)cc21

>  <assay_system>
HCC-2998 colon

>  <TGI>
45.1 µM

$$$$
>  <molecule>
O=C(O)c1nccnc1C(=O)O

>  <assay_system>
HCC-2998 colon

>  <TGI>
> 100 µM

$$$$
>  <molecule>
C=CCn1cnc2c(=O)[nH]c(Nc3ccccc3)nc21

>  <assay_system>
HCC-2998 colon

>  <TGI>
> 100 µM

$$$$
>  <molecule>
O=C(c1ccccc1)c1c(CC(O)c2ccccc2)n(C(=O)c2ccccc2)c2ccccc12 (stereo not given)

>  <assay_system>
HCC-2998 colon

>  <TGI>
> 100 µM

$$$$
>  <molecule>
CC(C)CN(CC#N)CC(C)C

>  <assay_system>
HCC-2998 colon

>  <TGI>
> 100 µM

$$$$
>  <molecule>
CCN(CC)COC(=S)S

>  <assay_system>
HCC-2998 colon

>  <TGI>
> 78.1 µM

$$$$
>  <molecule>
Cc1cc(C)n(C(=O)CSc2nnc(SCC(=O)n3nc(C)cc3C)s2)n1

>  <assay_system>
HCC-2998 colon

>  <TGI>
> 100 µM

$$$$
>  <molecule>
CC1CC(C)C2=NOS3=C2C1=NO3 (stereo not given)

>  <assay_system>
HCC-2998 colon

>  <TGI>
> 100 µM

$$$$
>  <molecule>
C/C(CCn1[nH]c(=O)ccc1=O)=N\Nc1ccc([N+](=O)[O-])cc1[N+](=O)[O-]

>  <assay_system>
HCC-2998 colon

>  <TGI>
> 100 µM

$$$$
>  <molecule>
O=C(/C=C/c1ccc(O)c(O)c1)NCCc1ccc(-c2ccccc2)cc1

>  <assay_system>
HCC-2998 colon

>  <TGI>
> 100 µM

$$$$
>  <molecule>
Cc1nc(Nc2ccccc2)sc1C(=O)CC(=O)C(=O)NC12CC3CC(CC(C3)C1)C2

>  <assay_system>
HCC-2998 colon

>  <TGI>
> 100 µM

$$$$
>  <molecule>
NNC(=S)Nc1cccc(Cl)c1

>  <assay_system>
HCC-2998 colon

>  <TGI>
> 100 µM

$$$$
>  <molecule>
CCCCN=C1OCc2[nH][nH]c(=O)c21

>  <assay_system>
HCC-2998 colon

>  <TGI>
> 100 µM

$$$$
>  <molecule>
CCOC(=O)C1SC(=Nc2ccc(Cl)cc2C)N=C1C (stereo not given)

>  <assay_system>
HCC-2998 colon

>  <TGI>
47.9 µM

$$$$
>  <molecule>
CN(O)C(=S)c1ccccc1

>  <assay_system>
HCC-2998 colon

>  <TGI>
44 µM

$$$$
>  <molecule>
C=C1CCC2C3(C)COC(c4ccc(Cl)cc4)OC3CCC2(C)C1/C=C/C1=CCOC1=O (stereo not given)

>  <assay_system>
HCC-2998 colon

>  <TGI>
> 100 µM

$$$$
>  <molecule>
CN(C)Cc1cc(N=Nc2ccc(Cl)cc2)ccc1O

>  <assay_system>
HCC-2998 colon

>  <TGI>
28.6 µM

$$$$
>  <molecule>
CC(=O)[O-].[O-]c1c(Cl)cc(Cl)cc1/C=N/Nc1ccccn1.[Zn+2]

>  <assay_system>
HCC-2998 colon

>  <TGI>
> 100 µM

$$$$
>  <molecule>
C[C@]12CC/C(=N\OCCN3CCCCC3)C=C1CCC1C2CC[C@@]2(C)C1CC[C@]2(C)O (stereo not given in full)

>  <assay_system>
HCC-2998 colon

>  <TGI>
22.1 µM

$$$$
